These measurements were taken from PubChem BioAssay (NCI).

Experiment: NCI Yeast Anticancer Drug Screen. Data for the rad50 strain (AID 155);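 further: 0% = growth of vehicle-only cultures of the same strain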
Conditions: S. cerevisiae rad50 strain growth inhibition; at 5.0 µM (retest, dose inferred, filed as 0.5); stronger effect = higher value
The panel holds about 79,000 compounds, 15% with a hit somewhere; the sample as a whole holds those more often.
Let's look at some compounds and their measured growth inhibition.
OBSERVATION TYPE: growth inhibition (%)

# COMPOUND, OBSERVATION TYPE, U, ASSAY VALUE
records = [
    ("COC(=O)c1ccccc1N=NNc1cccc(SC)c1", "growth inhibition", "%", 30),
    ("COc1ccc2cc3c4cc5c(cc4cc[n+]3cc2c1OC)OCO5", "growth inhibition", "%", 76),
    ("O=C(c1cc(=O)c2ccc(O)cc2o1)c1ccc(Cl)cc1Cl", "growth inhibition", "%", 23),
    ("Cc1ccc([N+](=O)[O-])c2c(NCCC[N+](C)(C)[O-])c3ccccc3nc12", "growth inhibition", "%", -16),
    ("O=C(NCCCCN1CC2CCCC2C1)C(C1CCCCC1)C1CCCCC1 (stereo not given)", "growth inhibition", "%", 35),
    ("O=C1CSC(c2ccccc2)N1c1ccc(-c2ccc(-n3c(-c4ccccc4)nc4ccccc4c3=O)cc2)cc1 (stereo not given)", "growth inhibition", "%", -2),
    ("COc1cc([C@@H]2c3cc4c(cc3[C@@H](NC(=O)NO)[C@H]3COC(=O)[C@H]23)OCO4)cc(OC)c1O", "growth inhibition", "%", 13),
    ("CC(C)OP(=O)(OC(C)C)C(=NCCO)NNc1ccc([N+](=O)[O-])cc1", "growth inhibition", "%", 8),
    ("OC1(c2ccccc2)C2CC=CC2C1(c1ccccc1)c1ccccc1 (stereo not given)", "growth inhibition", "%", 12),
    ("CNCC(C)CNC", "growth inhibition", "%", -6),
]

----------
Test: NCI Yeast Anticancer Drug Screen. Data for the rad14 strain (AID 159);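 further: 0% = growth of vehicle-treated control cultures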
Conditions: S. cerevisiae rad14 strain growth inhibition; at 3.7 µM; stronger effect = higher value
This is part of a sample that, as a whole, favours compounds with a hit. Of some 79,000 tested, about 15% had one in any assay. Active and inactive are the calls of the source. Rule as the data show it: active = growth inhibition above about 70%; inactive = the rest.
OBSERVATION TYPE: growth inhibition

# COMPOUND, ASSAY VALUE
records = [
    ("Oc1ccc(N=Nc2ccc(Cl)cc2)cc1", "7% (inactive)"),
    ("O=[N+]([O-])c1ccc2nc(=S)[nH]n2c1", "-1% (inactive)"),
    ("NC(=S)N/N=C1\\c2ccccc2CCC1CCC1(O)CCc2ccccc2C1=O (configuration not stated)", "7% (inactive)"),
    ("COc1cccc(C(NC2=NCCC=N2)c2cc3c(cc2O)OCO3)c1O (configuration not stated)", "5% (inactive)"),
    ("c1ccc([P+](CCN2Cc3ccccc3C2)(c2ccccc2)c2ccccc2)cc1", "13% (inactive)"),
    ("CCCCCCCSCC1C(=O)C23C(O)C1CCC2C12COC3(O)C(O)C1C(C)(C)CCC2O (configuration not stated)", "5% (inactive)"),
    ("O=C1/C(=C/c2ccc(Cl)c(Cl)c2)CNC/C1=C\\c1ccc(Cl)c(Cl)c1", "8% (inactive)"),
    ("Cc1cc2nc3ccccc3n2c2ccccc12", "-37% (inactive)"),
    ("N#C/C(=C\\NC(=S)Nc1ccc(S(N)(=O)=O)cc1)C(=O)c1ccc2ccccc2c1", "-1% (inactive)"),
    ("OC(Cc1cccc2ccccc12)CN1CCC(c2ccccc2)CC1 (configuration not stated)", "75% (active)"),
    ("O=C(/C=C/c1ccsc1)c1cccs1", "0% (inactive)"),
    ("CC1C(c2ccccc2)SC(=N)N1C (configuration not stated)", "2% (inactive)"),
]
